// reported pIC50 for each item listed
Target: AR-LBD and SRC1 (Homo sapiens, UniProt P10275)
Construct: AR-LBD amino acids 658–919 expressed as a fusion protein with Gal4-DBD; expressed in transfected cells; host or cells: HEK 293
Assay: SRC1 mammalian 2-hybrid (M2H) assay
Type: cell-based
Conditions: HEK 293 cells; 25 nM DHT; 27 h compound exposure; read-out: M2H AR-SRC1 CoA Recruitment IC50
pIC50: −log10 of the molar value.
QUANTITY: pIC50

[[record]]
smiles_string = "Cc1c(-c2ccc(F)cc2)[nH]c2ccc(CNC(=O)c3ccc(CO)o3)cc12"
recorded_number = 5.52

[[record]]
smiles_string = "CC(=O)NCCC(=O)NCc1ccc2[nH]c(-c3ccccc3F)c(C)c2c1"
recorded_number = 4.93

[[record]]
smiles_string = "Cc1ccccc1-c1cc(O)c2c(c1)CN(c1nc(C(N)=O)cs1)CCO2"
recorded_number = 5.45

[[record]]
smiles_string = "Cc1c(-c2ccccc2F)[nH]c2ccc(CNC(=O)CCc3cnccn3)cc12"
recorded_number = 5.41

[[record]]
smiles_string = "Cc1nsc(NC(=O)N2CCC(Sc3ccccc3C)CC2)n1"
recorded_number = 6.34


====

Test system: HEK 293 cells
Assay: M2H viability counter screen
Type: cell-based
Conditions: cytotoxicity counter screen; read-out: M2H viability CS GI50
QUANTITY: GI50

[[record]]
smiles_string = "Cc1ccccc1-c1cc(O)c2c(c1)CN(c1nccs1)CCO2"
result = "> 100 µM"


====

Target: AR-LBD and TIF2 (Homo sapiens, UniProt P10275)
Construct: AR-LBD amino acids 658–919 expressed as a fusion protein with Gal4-DBD
Sequence (P10275 658-919): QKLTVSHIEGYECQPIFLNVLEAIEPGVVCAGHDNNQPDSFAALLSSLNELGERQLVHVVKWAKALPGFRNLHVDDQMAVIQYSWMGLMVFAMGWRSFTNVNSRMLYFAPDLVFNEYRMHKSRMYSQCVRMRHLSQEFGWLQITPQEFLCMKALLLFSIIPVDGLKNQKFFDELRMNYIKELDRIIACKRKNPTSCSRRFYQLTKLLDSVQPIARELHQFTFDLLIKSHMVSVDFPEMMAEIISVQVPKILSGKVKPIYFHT
Assay: TIF2 mammalian 2-hybrid (M2H) assay
Settings: HEK 293 cells; 25 nM DHT; 27 h compound exposure; read-out: M2H AR-TIF2 CoA Recruitment IC50
IC50 under 3 µM gets class 1, anything at or over 3 µM gets class 0.

[[record]]
compound = "Cc1c(-c2ccccc2F)[nH]c2ccc(CNC(=O)CCc3cnccn3)cc12 [S3–12]"
classification = "class 0"

[[record]]
compound = "Cc1nsc(NC(=O)N2CCC(Sc3ccccc3C)CC2)n1 [S2–6]"
classification = "class 1"

[[record]]
compound = "Cc1ccccc1-c1cc(O)c2c(c1)CN(c1nccs1)CCO2 [S1–3]"
classification = "class 0"

[[record]]
compound = "CC(=O)NCCC(=O)NCc1ccc2[nH]c(-c3ccccc3F)c(C)c2c1 [S3–13]"
classification = "class 0"

[[record]]
compound = "Cc1c(-c2ccccc2F)[nH]c2ccc(CNC(=O)c3ccc(CO)o3)cc12 [S3–14]"
classification = "class 1"

[[record]]
compound = "Cc1ccccc1-c1cc(O)c2c(c1)CN(c1nc(C(N)=O)cs1)CCO2 [S1–1]"
classification = "class 0"

[[record]]
compound = "Cc1c(-c2ccc(F)cc2)[nH]c2ccc(CNC(=O)c3ccc(CO)o3)cc12 [S3–15]"
classification = "class 0"

[[record]]
compound = "Cc1c(-c2ccccc2F)[nH]c2ccc(CNC(=O)CCc3cn[nH]c3)cc12 [S3–11]"
classification = "class 0"


====

Target: AR-TIF2 PPI (Homo sapiens)
Construct: expressed in transfected cells; host or cells: U-2 OS osteosarcoma cells, co-infected with recombinant adenoviruses
Assay: AR-TIF2 PPI biosensor (PPIB) HCS assay, inhibition of DHT-induced AR-TIF2 PPI formation
Format: cell-based
Conditions: U-2 OS cells; compounds 3 h prior to 25 nM DHT for 90 min
QUANTITY: IC50 (µM)

[[record]]
compound = "Cc1nsc(NC(=O)N2CCC(N3CCCC3=O)CC2)n1 [S2–9]"
inequality_operator = ">"
recorded_number = 100

[[record]]
compound = "Cc1nsc(NC(=O)N2CCC(Sc3ccccc3C)CC2)n1 [S2–6]"
inequality_operator = "="
recorded_number = 1.06

[[record]]
compound = "Cc1ccccc1-c1cc(O)c2c(c1)CN(c1nc(C(N)=O)cs1)CCO2 [S1–1]"
inequality_operator = "="
recorded_number = 5.64

[[record]]
compound = "CCc1[nH]c2c(CNC(=O)CCCc3cn[nH]c3)cc(F)cc2c1C [S3–25]"
inequality_operator = "="
recorded_number = 77.1

[[record]]
compound = "Cc1c(-c2ccccc2F)[nH]c2ccc(CNC(=O)c3cc[nH]n3)cc12 [S3–16]"
inequality_operator = "="
recorded_number = 28.8

[[record]]
compound = "Cc1c(-c2ccccc2F)[nH]c2ccc(CNC(=O)CCc3cnccn3)cc12 [S3–12]"
inequality_operator = "="
recorded_number = 4.24


====

Experiment: M2H viability counter screen
Format: cell-based
Conditions: human, HEK 293 cells; cytotoxicity counter screen; read-out: M2H viability CS GI50
QUANTITY: GI50 (µM)

[[record]]
smiles_string = "Cc1c(-c2ccccc2F)[nH]c2ccc(CNC(=O)CCc3cn[nH]c3)cc12"
quantity = "GI50"
inequality_operator = "="
recorded_number = 69.2

[[record]]
smiles_string = "Cc1c(-c2ccccc2F)[nH]c2ccc(CNC(=O)c3ccc(CO)o3)cc12"
quantity = "GI50"
inequality_operator = ">"
recorded_number = 100

[[record]]
smiles_string = "Cc1c(-c2ccccc2F)[nH]c2ccc(CNC(=O)CCc3cnccn3)cc12"
quantity = "GI50"
inequality_operator = ">"
recorded_number = 100

[[record]]
smiles_string = "Cc1ccccc1-c1cc(O)c2c(c1)CN(c1nc(C(N)=O)cs1)CCO2"
quantity = "GI50"
inequality_operator = "="
recorded_number = 58.6


====

Molecular target: AR-TIF2 PPI (Homo sapiens, UniProt P10275)
Construct: expressed in transfected cells; host or cells: U-2 OS osteosarcoma cells, co-infected with recombinant adenoviruses
Experiment: AR-TIF2 PPI biosensor (PPIB) HCS assay, disruption of pre-formed AR-TIF2 PPI complexes
Type: cell-based
Conditions: U-2 OS cells; 25 nM DHT 90 min prior to compounds for 3 h
The following compounds are shown together with reported IC50 values.
QUANTITY: IC50

[[record]]
compound = "Cc1c(-c2ccccc2F)[nH]c2ccc(CNC(=O)Cc3cccnc3)cc12 [S3–19]"
target_entity = "AR-TIF2 PPI (Homo sapiens, UniProt P10275)"
quantity = "IC50"
result = "> 100 µM"

[[record]]
compound = "Cc1c(-c2ccccc2F)[nH]c2ccc(CNC(=O)CCC3=NNC(=O)CC3)cc12 [S3–18]"
target_entity = "AR-TIF2 PPI (Homo sapiens, UniProt P10275)"
quantity = "IC50"
result = "> 100 µM"

[[record]]
compound = "Cc1nsc(NC(=O)N2CCC(N3CCCC3=O)CC2)n1 [S2–9]"
target_entity = "AR-TIF2 PPI (Homo sapiens, UniProt P10275)"
quantity = "IC50"
result = "> 100 µM"


Data origin, for the record: paper PMC12366525
